Tested on: A549
Assay: Cytotoxicity against human A549 cells after 48 hrs by MTT assay
Format: functional, cell-based
Conditions: A549, 48 h
Record form. Attribute: IC50. Fill in for each entry.

Prompt: Any idea what its IC50 is? The molecule is `CC1(C)C[C@@H](OC(=O)c2ccccc2)[C@]2(C(=O)O)CC[C@]3(C)C(=CC[C@@H]4[C@@]5(C)CCC(=O)C(C)(C)[C@@H]5CC[C@]43C)[C@@H]2C1`
Response: > 100 µg/mL

Prompt: Entry `CC(C)C(=O)O[C@@H]1CC(C)(C)C[C@H]2C3=CC[C@@H]4[C@@]5(C)CCC(=O)C(C)(C)[C@@H]5CC[C@@]4(C)[C@]3(C)CC[C@@]12C(=O)O` please
Response: 44.2 µg/mL

Prompt: Param item: `CCCC(=O)O[C@@H]1CC(C)(C)C[C@H]2C3=CC[C@@H]4[C@@]5(C)CCC(=O)C(C)(C)[C@@H]5CC[C@@]4(C)[C@]3(C)CC[C@@]12C(=O)OC`
Response: 22.4 µg/mL

Prompt: Same question for `CCC(=O)O[C@@H]1CC(C)(C)C[C@H]2C3=CC[C@@H]4[C@@]5(C)CCC(=O)C(C)(C)[C@@H]5CC[C@@]4(C)[C@]3(C)CC[C@@]12C(=O)O` please.
Response: 29.6 µg/mL

Prompt: Item: `COC(=O)[C@@]12CC[C@]3(C)C(=CC[C@@H]4[C@@]5(C)CCC(=O)C(C)(C)[C@@H]5CC[C@]43C)[C@@H]1CC(C)(C)C[C@H]2O`
Response: 84.2 µg/mL

###

Could you please report measured IC50 for the items listed next?
Test system: A549
Experiment: Cytotoxicity against human A549 cells after 48 hrs by MTT assay
Format: functional, cell-based
Details: A549, 48 h

Prompt: GET /values?readout=IC50&item= `CC(=O)O[C@H]1C(=O)[C@@]2(C)[C@H]([C@H](OC(=O)c3ccccc3)[C@]3(O)C[C@H](OC(=O)[C@H](O)[C@@H](NC(=O)c4ccccc4)c4ccccc4)C(C)=C1C3(C)C)[C@]1(OC(C)=O)CO[C@@H]1C[C@@H]2O`
Response: < 2 mg/L

Prompt: Param item: `CC1(C)C[C@@H](O)[C@]2(C(=O)O)CC[C@]3(C)C(=CC[C@@H]4[C@@]5(C)CCC(=O)C(C)(C)[C@@H]5CC[C@]43C)[C@@H]2C1`
Response: > 100 mg/L

Prompt: What do you get for `CCCC(=O)O[C@@H]1CC(C)(C)C[C@H]2C3=CC[C@@H]4[C@@]5(C)CCC(=O)C(C)(C)[C@@H]5CC[C@@]4(C)[C@]3(C)CC[C@@]12C(=O)O` ?
Response: 27.1 mg/L

Prompt: Now consider `C/C=C(/C)C(=O)O[C@@H]1CC(C)(C)C[C@H]2C3=CC[C@@H]4[C@@]5(C)CCC(=O)C(C)(C)[C@@H]5CC[C@@]4(C)[C@]3(C)CC[C@@]12C(=O)O` and answer again.
Response: 21.8 mg/L

Prompt: What do we get for `COC(=O)[C@@]12CC[C@]3(C)C(=CC[C@@H]4[C@@]5(C)CCC(=O)C(C)(C)[C@@H]5CC[C@]43C)[C@@H]1CC(C)(C)C[C@H]2OC(=O)C(C)C` ?
Response: 42.2 mg/L

###

Provide the recorded IC50 for the entries that follow.
Test: Cytotoxicity against human colon 502713 cells after 48 hrs by MTT assay
Assay type: functional, cell-based
Conditions: Homo sapiens, 502713, 48 h

Prompt: Record request: IC50 value, item `COC(=O)[C@@]12CC[C@]3(C)C(=CC[C@@H]4[C@@]5(C)CCC(=O)C(C)(C)[C@@H]5CC[C@]43C)[C@@H]1CC(C)(C)C[C@H]2OC(=O)c1ccccc1`
Response: > 100 µg/mL

Prompt: One more molecule: `CC(=O)O[C@H]1C(=O)[C@@]2(C)[C@H]([C@H](OC(=O)c3ccccc3)[C@]3(O)C[C@H](OC(=O)[C@H](O)[C@@H](NC(=O)c4ccccc4)c4ccccc4)C(C)=C1C3(C)C)[C@]1(OC(C)=O)CO[C@@H]1C[C@@H]2O`
Response: < 2 µg/mL

Prompt: And then `CC1(C)C[C@@H](O)[C@]2(C(=O)O)CC[C@]3(C)C(=CC[C@@H]4[C@@]5(C)CCC(=O)C(C)(C)[C@@H]5CC[C@]43C)[C@@H]2C1` , what is it?
Response: > 100 µg/mL
